test system: ACHN renal; assay: NCI tumour cell line growth inhibition, 48 h
List of TGI values.
readout: TGI

>>> reported_result("COc1ccc2c(c1)C(=O)C1CC(=O)CCC21 (stereo unspecified)")
"> 100 µM"
>>> reported_result("C[N+](C)(C)CCc1ccccc1")
"> 100 µM"
>>> reported_result("CC(C)(C)OC(=O)NC(Cc1ccccc1)OCc1ccccc1 (stereo unspecified)")
"35 µM"
>>> reported_result("CC(C)NCCCn1c(Sc2cc3c(cc2I)OCO3)nc2c(N)ncnc21")
"> 100 µM"
>>> reported_result("C/C(=C\\c1ccc2ccccc2c1)[N+](=O)[O-]")
"3.34 µM"
>>> reported_result("CC(=O)OC12C=C(C)C(C(C)C1)C1C(=O)N(CCN3CCOCC3)C(=O)C12 (stereo unspecified)")
"> 100 µM"
